- Test: Cytotoxicity against mouse 3T3 cells assessed as reduction in cell viability measured after 24 hrs
- Format: toxicity, cell-based
- Run Conditions: NIH3T3 cells
Reported Endpoint: IC50 at 24 h (µM)
Your answer is read as µM, so omit the unit and give the number.

Solved entries (count: 3):
Mol Smiles | Unit Symbol | Measured Result
Cc1cc(=O)oc2cc(OCCn3cc(CO)nn3)ccc12 | µM | 5.21
Cc1cc(=O)oc2cc(O)ccc12 | µM | 24
Cc1cc(=O)oc2cc(OCCn3cc(CCN4C(=O)c5ccccc5C4=O)nn3)ccc12 | µM | 0.62

Field IC50 at 24 h (entry Cc1cc(=O)oc2cc(OCCn3cc(-c4ccccc4)nn3)ccc12 ) reads 2.41

----------
- Test: Selectivity index, ratio of IC50 for mouse 3T3 cells to IC50 for human OVCAR cells
Entries and their measured Ratio IC50 follow.

Mol Smiles | Ratio IC50
Cc1cc(=O)oc2cc(OCCn3cc(-c4ccccc4)nn3)ccc12 | 0.004
Cc1cc(=O)oc2cc(OCCn3cc(COc4cccc5c(C)cc(=O)oc45)nn3)ccc12 | 0.012

Field Ratio IC50 (entry Cc1cc(=O)oc2cc(O)ccc12 ) reads 0.021

Field Ratio IC50 (entry Cc1cc(=O)oc2cc(OCCn3cc(CO)nn3)ccc12 ) reads < 0.001
